Kindly supply the reported pKd values for the records listed here.
Experimental target: T1, human DNMT1 BAH1 domain (residues 728-900), D768A (human, UniProt P26358 728-900, D768A)
T1 construct: numbering on isoform 1 of 1616 amino acids; also called hDNMT1_(BAH1), D768A; source: E. coli BL21(DE3) RIL, purified as the wild-type protein; not shown: His6-SUMO, N-terminal, cleaved
T1 sequence (P26358 728-900 D768A): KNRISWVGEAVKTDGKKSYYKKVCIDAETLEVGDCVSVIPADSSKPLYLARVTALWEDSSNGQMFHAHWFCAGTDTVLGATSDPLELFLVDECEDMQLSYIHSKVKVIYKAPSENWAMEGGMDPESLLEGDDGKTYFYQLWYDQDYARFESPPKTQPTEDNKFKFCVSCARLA
Assay protocol: ITC; 1 mM H4K20me peptide titrated over 0.1 mM hDNMT1 BAH1 or BAH2 domain; 25 mM Tris-HCl pH 7.5, 100 mM NaCl, 2 mM DTT; 5 °C; single-site binding mode
Condition label: both partners purified
No end group written: not given here. dimethyl = dimethyl-lysine
// pKd here means minus log10 of the molar concentration (mol/L)

GET /values?readout=pKd&item= GAKRHRK(dimethyl)VLRDNY (histone H4, residues 14-25; additional C-terminal tyrosine for spectroscopic quantification; source: synthetic peptide (LifeTein)) [H4(14-25)K20me2 peptide]
5.03

GET /values?readout=pKd&item= GAKRHRKVLRDNY (trimethyl-lysine at K20, histone H4, residues 14-25; additional C-terminal tyrosine for spectroscopic quantification; also called H4K20me3 peptide; source: synthetic peptide (LifeTein)) [H4(14-25)K20me3 peptide]
4.94
